Tested on: Escherichia coli TOP10
test_name: shrunken log2 fold change of peptide-encoding DNA abundance (4.5 h post-induction vs induction); higher = less antimicrobial activity (less host growth inhibition)
test_settings: time post-induction: 4.5 h; library: site-saturation at positions 5, 18, 19, 20
Hi all, reminder that labels come from shrunken log2 fold change, split as bin 0 = under 0.02, bin 1 = from 0.02 up to 0.3, bin 2 = 0.3 and over

[
  {
    "residues": "RRIRNRPPRLPRPRPRPFEFPRP",
    "label_class": "bin 0"
  },
  {
    "residues": "RRIRWRPPRLPRPRPRPMLLPRP",
    "label_class": "bin 1"
  },
  {
    "residues": "RRIRHRPPRLPRPRPRPVGNPRP",
    "label_class": "bin 0"
  },
  {
    "residues": "RRIRGRPPRLPRPRPRPKCDPRP",
    "label_class": "bin 2"
  },
  {
    "residues": "RRIRWRPPRLPRPRPRPKYGPRP",
    "label_class": "bin 1"
  },
  {
    "residues": "RRIRCRPPRLPRPRPRPRPLPRP",
    "label_class": "bin 2"
  },
  {
    "residues": "RRIRARPPRLPRPRPRPKREPRP",
    "label_class": "bin 2"
  },
  {
    "residues": "RRIRLRPPRLPRPRPRPDNYPRP",
    "label_class": "bin 1"
  },
  {
    "residues": "RRIRHRPPRLPRPRPRPECQPRP",
    "label_class": "bin 0"
  },
  {
    "residues": "RRIRWRPPRLPRPRPRPCQLPRP",
    "label_class": "bin 0"
  },
  {
    "residues": "RRIRRRPPRLPRPRPRPETQPRP",
    "label_class": "bin 1"
  }
]

----------
Test system: Escherichia coli TOP10;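 further: peptides expressed intracellularly from a pBAD plasmid library in pooled LB shake-flask culture, induced with 0.3% L-arabinose, DNA abundance read by NGS, three biological replicates, DESeq2 with apeglm shrinkage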
test_name: shrunken log2 fold change of peptide-encoding DNA abundance (4.5 h post-induction vs induction); higher = less antimicrobial activity (less host growth inhibition)
test_settings: time post-induction: 4.5 h; library: site-saturation at positions 5, 18, 19, 20
Measured shrunken log2 fold change values are reported for all entries that follow.
measured_endpoint: shrunken log2 fold change

[
  {
    "residues": "RRIRTRPPRLPRPRPRPDCFPRP",
    "subject_of_test": "Escherichia coli TOP10",
    "measured_endpoint": "shrunken log2 fold change",
    "test_value": -0.138
  },
  {
    "residues": "RRIRQRPPRLPRPRPRPATNPRP",
    "subject_of_test": "Escherichia coli TOP10",
    "measured_endpoint": "shrunken log2 fold change",
    "test_value": -0.0811
  },
  {
    "residues": "RRIRLRPPRLPRPRPRPNNHPRP",
    "subject_of_test": "Escherichia coli TOP10",
    "measured_endpoint": "shrunken log2 fold change",
    "test_value": -0.761
  },
  {
    "residues": "RRIRDRPPRLPRPRPRPYAGPRP",
    "subject_of_test": "Escherichia coli TOP10",
    "measured_endpoint": "shrunken log2 fold change",
    "test_value": 0.0325
  },
  {
    "residues": "RRIRYRPPRLPRPRPRPFWCPRP",
    "subject_of_test": "Escherichia coli TOP10",
    "measured_endpoint": "shrunken log2 fold change",
    "test_value": -0.208
  },
  {
    "residues": "RRIRQRPPRLPRPRPRPPLVPRP",
    "subject_of_test": "Escherichia coli TOP10",
    "measured_endpoint": "shrunken log2 fold change",
    "test_value": 0.931
  },
  {
    "residues": "RRIRPRPPRLPRPRPRPPVIPRP",
    "subject_of_test": "Escherichia coli TOP10",
    "measured_endpoint": "shrunken log2 fold change",
    "test_value": 0.332
  },
  {
    "residues": "RRIRFRPPRLPRPRPRPFPMPRP",
    "subject_of_test": "Escherichia coli TOP10",
    "measured_endpoint": "shrunken log2 fold change",
    "test_value": -0.0754
  },
  {
    "residues": "RRIRIRPPRLPRPRPRPCTGPRP",
    "subject_of_test": "Escherichia coli TOP10",
    "measured_endpoint": "shrunken log2 fold change",
    "test_value": -0.887
  },
  {
    "residues": "RRIRKRPPRLPRPRPRPICQPRP",
    "subject_of_test": "Escherichia coli TOP10",
    "measured_endpoint": "shrunken log2 fold change",
    "test_value": -0.0166
  },
  {
    "residues": "RRIRKRPPRLPRPRPRPKPLPRP",
    "subject_of_test": "Escherichia coli TOP10",
    "measured_endpoint": "shrunken log2 fold change",
    "test_value": 0.687
  },
  {
    "residues": "RRIRPRPPRLPRPRPRPNSVPRP",
    "subject_of_test": "Escherichia coli TOP10",
    "measured_endpoint": "shrunken log2 fold change",
    "test_value": -0.174
  },
  {
    "residues": "RRIRCRPPRLPRPRPRPYTMPRP",
    "subject_of_test": "Escherichia coli TOP10",
    "measured_endpoint": "shrunken log2 fold change",
    "test_value": -0.382
  },
  {
    "residues": "RRIRCRPPRLPRPRPRPMNSPRP",
    "subject_of_test": "Escherichia coli TOP10",
    "measured_endpoint": "shrunken log2 fold change",
    "test_value": -0.141
  },
  {
    "residues": "RRIRFRPPRLPRPRPRPYRGPRP",
    "subject_of_test": "Escherichia coli TOP10",
    "measured_endpoint": "shrunken log2 fold change",
    "test_value": -0.384
  },
  {
    "residues": "RRIRGRPPRLPRPRPRPSGQPRP",
    "subject_of_test": "Escherichia coli TOP10",
    "measured_endpoint": "shrunken log2 fold change",
    "test_value": 0.538
  },
  {
    "residues": "RRIRPRPPRLPRPRPRPTYWPRP",
    "subject_of_test": "Escherichia coli TOP10",
    "measured_endpoint": "shrunken log2 fold change",
    "test_value": -0.00192
  },
  {
    "residues": "RRIRKRPPRLPRPRPRPDCPPRP",
    "subject_of_test": "Escherichia coli TOP10",
    "measured_endpoint": "shrunken log2 fold change",
    "test_value": 0.178
  },
  {
    "residues": "RRIRLRPPRLPRPRPRPVMPPRP",
    "subject_of_test": "Escherichia coli TOP10",
    "measured_endpoint": "shrunken log2 fold change",
    "test_value": -0.29
  },
  {
    "residues": "RRIRERPPRLPRPRPRPQCLPRP",
    "subject_of_test": "Escherichia coli TOP10",
    "measured_endpoint": "shrunken log2 fold change",
    "test_value": -0.116
  },
  {
    "residues": "RRIRNRPPRLPRPRPRPDRWPRP",
    "subject_of_test": "Escherichia coli TOP10",
    "measured_endpoint": "shrunken log2 fold change",
    "test_value": 0.00119
  },
  {
    "residues": "RRIRMRPPRLPRPRPRPYRGPRP",
    "subject_of_test": "Escherichia coli TOP10",
    "measured_endpoint": "shrunken log2 fold change",
    "test_value": 0.148
  },
  {
    "residues": "RRIRSRPPRLPRPRPRPGLAPRP",
    "subject_of_test": "Escherichia coli TOP10",
    "measured_endpoint": "shrunken log2 fold change",
    "test_value": 0.444
  }
]

FYI, the data here is from the supplement of paper PMC9112550.
